What T/C was measured for each of the following?
# Test system: P388 leukemia ip, CD2F1 mice, survival T/C
# experimental-details: NCI In Vivo Anticancer Drug Screen. Data for tumor model P388 Leukemia (intraperitoneal) in CD2F1 (CDF1) mice
# conditions: endpoint: median survival time; dose: 200.0 mg/kg/injection; schedule: Q01DX009 (ip); vehicle: Klucel (hydroxypropylcellulose) (HPC); higher = longer survival
Toxic doses and inconclusive results are not listed.

Recorded T/C, per entry:
>>> print(df.to_string())
                                   compound  measurement_label        data_value
0  CCOC(=O)c1c(C)[nH]c2c(-c3ccccc3)c3cc(Cl)ccc3nc12                T/C  104 % of control
1         O=C(NC(=O)c1ccccc1F)Nc1ccc(Cl)cc1                T/C   91 % of control
2              O=S1(=O)OC2(CCCCC2)c2ccccc21                T/C  108 % of control
3  N#CC1c2ccccc2C=CN1C(=O)CCCl (stereo not given)                T/C  108 % of control

// next item, T/C requested
In: Report T/C for CCN(CC)C(=O)C(F)C(F)(F)C(F)(F)C(F)C(=O)N(CC)CC (stereo not given)
Out: 98 % of control

---

# Tested on: P388 leukemia ip, CD2F1 mice, survival T/C
# experimental-details: NCI In Vivo Anticancer Drug Screen. Data for tumor model P388 Leukemia (intraperitoneal) in CD2F1 (CDF1) mice
# conditions: endpoint: median survival time; dose: 12.5 mg/kg/injection; schedule: Q01DX009 (ip); vehicle: Klucel (hydroxypropylcellulose) (HPC); higher = longer survival
Toxic doses and inconclusive results are not listed.
What T/C was measured for each of the following?

>>> print(df.to_string())
                                   compound        data_value
0                     Clc1nn2cnnc2c2ncccc12   91 % of control
1  C/C=C(\C)C(=O)OC1C(O)C(C)(C)C2C3C(=O)C=C(C)C2C3(C)C1OC(=O)/C(C)=C/C (stereo not drawn)  103 % of control
2                           Nc1ncnc2ccccc12  107 % of control
3                   CC(C)NC(=O)N(CCCCBr)N=O   99 % of control
4  CC(CC1CCCCC1)NCCC(c1ccccc1)c1ccccc1 (stereo not drawn)  116 % of control

Hello, I would appreciate it if you could give T/C for each entry below.
1. CC1(CCc2ccc(N(CCCl)CCCl)cc2)NC(=O)NC1=O (stereo not drawn)
2. COc1ccc2c(Cl)cc(NC(=S)Nc3ccccc3)nc2c1
3. CC/C=C/c1cc2ccccc2c(=O)o1

Out:
["103 % of control", "104 % of control", "106 % of control"]

---

# Tested on: P388 leukemia ip, CD2F1 mice, survival T/C
# experimental-details: NCI In Vivo Anticancer Drug Screen. Data for tumor model P388 Leukemia (intraperitoneal) in CD2F1 (CDF1) mice
# conditions: endpoint: median survival time; dose: 400.0 mg/kg/injection; schedule: Q04DX002 (ip); vehicle: saline; higher = longer survival
# Description: The antitumor activity of compounds was measured in mice bearing transplantable tumors. Survival or tumor size were measured and the results are expressed as the measurement made in the treated group (T) divided by the measurement made in the vehicle treated control group (C). The tumor model used in this assay is P388 Leukemia (intraperitoneal) in CD2F1 (CDF1) mice
Toxic doses and inconclusive results are not listed.
measurement-label: T/C

Recorded T/C, per entry:
In [3]: df
Out[3]:
                                   compound                               system_name  measurement_label        data_value
0         CN1C(=O)CC(=O)N(C)P1(=O)Oc1ccccc1  P388 leukemia ip, CD2F1 mice, survival T/C                T/C  101 % of control
1  C/[N+]([O-])=C1\C(C2COC(C)(C)O2)OC2OC(C)(C)OC12 (stereo not drawn)  P388 leukemia ip, CD2F1 mice, survival T/C                T/C  105 % of control

// next item, T/C requested
In: Report T/C for "Cc1cc(/C=C2/OC(=O)c3ccccc32)cc(C)c1O"
Out: 97 % of control

---

# Test system: P388 leukemia ip, CD2F1 mice, survival T/C
# experimental-details: NCI In Vivo Anticancer Drug Screen. Data for tumor model P388 Leukemia (intraperitoneal) in CD2F1 (CDF1) mice
# conditions: endpoint: median survival time; dose: 200.0 mg/kg/injection; schedule: Q01DX009 (ip); vehicle: saline with Tween-80
Toxic doses and inconclusive results are not listed. How the source made its calls: active means survival T/C of 150% or more; inactive means T/C below 125% in these data.
# valid calls are active, inactive; nothing else

compound	assigned-label
CCOC(=O)C(C(=O)OCC)C1CCC2(C)CCC(=O)C=C2C1 (stereo not drawn)	inactive
COc1cc(C(=O)NC2CC2)cc(OC)c1OC	inactive
CCC(=O)Oc1ccc(C2N(Cc3ccc(N(C)C)cc3)CCCN2Cc2ccc(N(C)C)cc2)cc1	inactive
O=C(O)c1nn(Cc2ccc(Cl)cc2)c2ccccc12	inactive
CCOC(=O)c1ccc(NC(CCC(C#N)(C#N)CCC(=NC(C)(C)C)Nc2ccc(C(=O)OCC)cc2)=NC(C)(C)C)cc1	inactive

In: Test call, this compound: COC(=O)C12N=NN(c3ccccc3)C1(C(=O)OC)C1CCC2C1 (stereo not drawn)
Out: inactive

In: Test call, this compound: O=C1NC(CCCl)C(=O)NC1CCCl (stereo not drawn)
Out: inactive

In: Test call, this compound: COC1/C=C/O[C@@]2(C)Oc3c(C)c(O)c4c(O)c(cc(O)c4c3C2=O)NC(=O)/C(C)=C\C=C\[C@H](C)C(O)[C@@H](C)[C@@H](O)[C@@H](C)[C@H](OC(C)=O)[C@@H]1C (stereo partly drawn)
Out: inactive

In: Test call, this compound: CC1(C)OC1CS(=O)c1ccccc1 (stereo not drawn)
Out: inactive

In: Test call, this compound: CCOC(=O)C1OC1(C)c1ccccc1 (stereo not drawn)
Out: inactive

---

What T/C was measured for each of the following?
# System: P388 leukemia ip, CD2F1 mice, survival T/C
# experimental-details: NCI In Vivo Anticancer Drug Screen. Data for tumor model P388 Leukemia (intraperitoneal) in CD2F1 (CDF1) mice
# conditions: endpoint: median survival time; dose: 100.0 mg/kg/injection; schedule: Q01DX009 (ip); vehicle: Klucel (hydroxypropylcellulose) (HPC); higher = longer survival
# Protocol: The antitumor activity of compounds was measured in mice bearing transplantable tumors. Survival or tumor size were measured and the results are expressed as the measurement made in the treated group (T) divided by the measurement made in the vehicle treated control group (C). The tumor model used in this assay is P388 Leukemia (intraperitoneal) in CD2F1 (CDF1) mice
Toxic doses and inconclusive results are not listed.

Recorded T/C, per entry:
>>> df
                                   molecule        data_value
0              Nc1nc(N)nc(NCCSS(=O)(=O)O)n1   94 % of control
1  CCC(c1ccccc1)c1noc(CCN(CC)CC)n1 (stereo not drawn)   99 % of control
2          O=C(C=Nc1ccc(Cl)c(Cl)c1)c1ccccc1  100 % of control
3                 C/C=C\C#C/C=C1/C=CC(=O)O1  108 % of control
4  Nc1cccc(SC(CC(=O)c2ccc(-c3ccccc3)cc2)c2ccco2)c1 (stereo not drawn)  101 % of control
5  CC12OC1(C)C1C(=O)OCC1C2=O (stereo not drawn)   97 % of control
6          COc1ccccc1C(O)(C(F)(F)F)C(F)(F)F   98 % of control

// next item, T/C requested
In: Report T/C for CC1(c2ccccc2)OC1(C)c1ccccc1 (stereo not drawn)
Out: 103 % of control

---

# System: P388 leukemia ip, CD2F1 mice, survival T/C
# experimental-details: NCI In Vivo Anticancer Drug Screen. Data for tumor model P388 Leukemia (intraperitoneal) in CD2F1 (CDF1) mice
# conditions: endpoint: median survival time; dose: 50.0 mg/kg/injection; schedule: Q01DX009 (ip); vehicle: saline with Tween-80
Inconclusive results and toxic doses are left out. How the source made its calls: active means survival T/C of 150% or more; inactive means T/C below 125% in these data.
# valid calls are active, inactive; nothing else

Some solved entries appear below for comparison.
>>> df
                                   compound  assigned_label
0                          ON=C(C1CC1)C1CC1        inactive
1                      CC(=O)CSc1ccc(Cl)cc1        inactive
2  CC1(CNC(=O)C(=O)NCC2(C)CO2)CO1 (stereo not drawn)          active
3  C=C(C)C(O)C(O)c1cc2ccc(=O)oc2cc1OC (stereo not drawn)        inactive
4  CCOC(=O)c1nc2c(N)nc(-c3ccccc3)nc2[nH]c1=O        inactive

In: Test call, this compound: "CCCCOCCOS(=O)(=O)c1ccc(C)cc1"
Out: inactive

In: Test call, this compound: O=C1NC(CCCl)C(=O)NC1CCCl (stereo not drawn)
Out: inactive

In: Test call, this compound: "Cc1[nH]c(=O)[nH]c(=O)c1C=O"
Out: inactive

In: Test call, this compound: "COc1ccc(CCN2CN=C(Sc3ccc([N+](=O)[O-])cc3Cl)NC2)cc1OC"
Out: inactive

In: Test call, this compound: "O=C1CCCN1.O=C1CCCN1.[Br][Co][Br]"
Out: inactive

In: Test call, this compound: "CC(=O)Nc1ccc2c(ccc3ccccc32)c1"
Out: inactive

In: Test call, this compound: "CC(=O)Nc1nc(NC(C)=O)c(N=O)c(NC(C)=O)n1"
Out: inactive

In: Test call, this compound: OC(C1CO1)C(O)C1CO1 (stereo not drawn)
Out: inactive
